target_desc: T1, IL-1β (UniProt P01584 117-269)
T1 construct: Antigen immobilised on the Biacore chip
assay_remarks: Biacore, periplasmic extract
// reported fold difference in affinity vs original per item

>  <binder>
XPA23 light chain H49R (Fab, V domains shown) VH: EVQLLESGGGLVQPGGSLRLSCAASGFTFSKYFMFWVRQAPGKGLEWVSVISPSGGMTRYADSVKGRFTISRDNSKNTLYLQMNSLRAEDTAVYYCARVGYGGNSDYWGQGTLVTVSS VL: DIQMTQSPSSVSASVGDRLTIICRASQDINRWLAWYQQTPGNAPKLLIRSATSLQSGVPSRFSGSGSGTDFTLTINSLQPEDFATYYCQQADSFPLTFGGGTKVEIK

>  <fold difference in affinity vs original [fold]>
0.21

$$$$
>  <binder>
XPA23 light chain N30Y (Fab, V domains shown) VH: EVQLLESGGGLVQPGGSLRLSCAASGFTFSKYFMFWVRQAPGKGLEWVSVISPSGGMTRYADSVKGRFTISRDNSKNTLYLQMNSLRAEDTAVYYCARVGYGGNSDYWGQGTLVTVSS VL: DIQMTQSPSSVSASVGDRLTIICRASQDIYRWLAWYQQTPGNAPKLLIHSATSLQSGVPSRFSGSGSGTDFTLTINSLQPEDFATYYCQQADSFPLTFGGGTKVEIK

>  <fold difference in affinity vs original [fold]>
1.4

$$$$
>  <binder>
XPA23 light chain A91D (Fab, V domains shown) VH: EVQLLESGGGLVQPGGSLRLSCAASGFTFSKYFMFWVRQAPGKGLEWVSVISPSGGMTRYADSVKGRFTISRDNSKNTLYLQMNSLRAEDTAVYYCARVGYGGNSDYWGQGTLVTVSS VL: DIQMTQSPSSVSASVGDRLTIICRASQDINRWLAWYQQTPGNAPKLLIHSATSLQSGVPSRFSGSGSGTDFTLTINSLQPEDFATYYCQQDDSFPLTFGGGTKVEIK

>  <fold difference in affinity vs original [fold]>
1.08

$$$$
